System: HepG2 (human hepatocellular carcinoma)
Assay: MTT cytotoxicity, HepG2
Assay type: cell-based
Settings: 72 h
Protocol: The cytotoxicities of the gold(III) compounds toward several human cancer cell lines including nasopharyngeal carcinoma (SUNE1, and its cisplatin variant CNE1), hepatocellular carcinoma (HepG2), and cervical epitheloid carcinoma (HeLa) were determined using a well-established MTT assay.
attribute-measured: IC50 (nM)

1) [Cl-].[Cl][Pt-2]12[n+]3ccccc3-c3cccc([n+]31)-c1cccc[n+]12 [[Pt(terpy)Cl]Cl, reference compound] ... 23000
2) N.N.[Cl][Pt][Cl] [cisplatin, reference compound] ... 1600
3) O=S(=O)([O-])C(F)(F)F.O=S(=O)([O-])C(F)(F)F.c1ccc([P+](CCC[P+](c2ccccc2)(c2ccccc2)[Au-]23[c]4ccccc4-c4cccc([n+]42)-c2cccc[c]23)(c2ccccc2)[Au-]23[c]4ccccc4-c4cccc([n+]42)-c2cccc[c]23)cc1 [compound 3d, [Au2(CNC)2(μ-dppp)](CF3SO3)2] ... 210
4) O=S(=O)([O-])C(F)(F)F.O=S(=O)([O-])C(F)(F)F.O=S(=O)([O-])C(F)(F)F.c1ccc([P+](CC[P+](c2ccccc2)(c2ccccc2)[Au-]23[c]4ccccc4-c4cccc([n+]42)-c2cccc[c]23)(CC[P+](c2ccccc2)(c2ccccc2)[Au-]23[c]4ccccc4-c4cccc([n+]42)-c2cccc[c]23)[Au-]23[c]4ccccc4-c4cccc([n+]42)-c2cccc[c]23)cc1 [3h, [Au3(CNC)3(μ-dpep)](CF3SO3)3] ... 3800
